Tested on: 699152-130-R-J1-PDC complex spheroid viability
EXPERIMENT: Anticancer human tumor 699152-130-R-J1-PDC patient-derived pancreatic carcinoma cell line growth inhibition [POLQ]
EXPERIMENTAL_CONDITIONS: second compound 0.1 µM; first compound 1 µM; hits give low values
OBSERVED_PROPERTY: viability, T/C (%)
Answers are plain numbers, in %.

[[record]]
molecule = "CCc1cc2c(N3CCc4c(cc(Cn5ccnc5)cc4-c4cn(C)nc4C(F)(F)F)C3=O)cc(C)nc2c(OC)n1 + Cc1cccc(N(C)C(=O)C2C(O)CCN2c2nc(C)cc(C(F)(F)F)c2C#N)c1"
observed_property = "viability, T/C"
reported = 97.1

[[record]]
molecule = "COc1cc(C2c3cc4c(cc3C(OC3OC5COC(C)OC5C(O)C3O)C3COC(=O)C23)OCO4)cc(OC)c1O (stereo unspecified) + Cc1cccc(N(C)C(=O)C2C(O)CCN2c2nc(C)cc(C(F)(F)F)c2C#N)c1"
observed_property = "viability, T/C"
reported = 72.8

[[record]]
molecule = "COc1ccc([C@@H](O)c2cc(-c3ncnc4cc(N5CCOCC5)ccc34)c(F)cc2Cl)nn1 + Nc1ccc(C#CCN(C(=O)Cc2ncc(C(F)(F)F)cc2C(F)(F)F)c2ccc(F)cc2)nn1"
observed_property = "viability, T/C"
reported = 76.4

[[record]]
molecule = "O=c1[nH]cc(F)c(=O)[nH]1 + COC1C(OC(N)=O)C(O)C(Oc2ccc3c(O)c(NC(=O)c4ccc(O)c(CC=C(C)C)c4)c(=O)oc3c2C)OC1(C)C"
observed_property = "viability, T/C"
reported = 97.2

[[record]]
molecule = "C=CC(=O)N1CCN(c2nc(=O)n(-c3c(C)ccnc3C(C)C)c3nc(-c4c(O)cccc4F)c(F)cc23)C(C)C1 (stereo unspecified) + Cc1cccc(N(C)C(=O)C2C(O)CCN2c2nc(C)cc(C(F)(F)F)c2C#N)c1"
observed_property = "viability, T/C"
reported = 93.8


Go through the items and report each one's viability, T/C.
1. CC1COCCN1c1cc(-c2ccnn2C)c2ccnc(-c3ccn[nH]3)c2n1 (stereo unspecified) + COC1C(OC(N)=O)C(O)C(Oc2ccc3c(O)c(NC(=O)c4ccc(O)c(CC=C(C)C)c4)c(=O)oc3c2C)OC1(C)C
2. CC1COCCN1c1cc(C2(S(C)(=N)=O)CC2)nc(-c2ccnc3[nH]ccc23)n1 (stereo unspecified) + Nc1ccc(C#CCN(C(=O)Cc2ncc(C(F)(F)F)cc2C(F)(F)F)c2ccc(F)cc2)nn1
3. Nc1ccn(C2OC(CO)C(O)C2(F)F)c(=O)n1 (stereo unspecified) + Cc1cccc(N(C)C(=O)C2C(O)CCN2c2nc(C)cc(C(F)(F)F)c2C#N)c1
4. CCCS(=O)(=O)Nc1ccc(F)c(C(=O)c2c[nH]c3ncc(-c4ccc(Cl)cc4)cc23)c1F + Nc1ccc(C#CCN(C(=O)Cc2ncc(C(F)(F)F)cc2C(F)(F)F)c2ccc(F)cc2)nn1
5. CNCc1ccc(-c2[nH]c3cc(F)cc4c3c2CCNC4=O)cc1 + Nc1ccc(C#CCN(C(=O)Cc2ncc(C(F)(F)F)cc2C(F)(F)F)c2ccc(F)cc2)nn1
6. COc1cc2cc(C(=O)CCC(=O)O)sc2cc1OC + COC1C(OC(N)=O)C(O)C(Oc2ccc3c(O)c(NC(=O)c4ccc(O)c(CC=C(C)C)c4)c(=O)oc3c2C)OC1(C)C

1: 57.1; 2: 97.6; 3: 48.8; 4: 143; 5: 105; 6: 93.7

====

Please go through the items and note down their viability, T/C.
Test system: 699152-130-R-J1-PDC complex spheroid viability
EXPERIMENT: Anticancer human tumor 699152-130-R-J1-PDC cell line growth inhibition [POLQ];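 also: spheroids exposed to agents for 7 days before viability reading; percent of DMSO vehicle control viability so 100% = vehicle and 0% = no viable signal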
EXPERIMENTAL_CONDITIONS: second compound 3.16 µM; first compound 0.316 µM; hits give low values

Below are worked cases with known answers.
[[record]]
compound = "CCc1cc2c(N3CCc4c(cc(Cn5ccnc5)cc4-c4cn(C)nc4C(F)(F)F)C3=O)ccnc2c(OC)n1 + Nc1ccc(C#CCN(C(=O)Cc2ncc(C(F)(F)F)cc2C(F)(F)F)c2ccc(F)cc2)nn1"
reported = "96.4%"

[[record]]
compound = "CC1COCCN1c1cc(-c2ccnn2C)c2ccnc(-c3ccn[nH]3)c2n1 (stereo unspecified) + Cc1cccc(N(C)C(=O)C2C(O)CCN2c2nc(C)cc(C(F)(F)F)c2C#N)c1"
reported = "69.4%"

[[record]]
compound = "CC(C)n1c(=O)n(C)c2cnc3cc(F)c(-c4ccc(OCCCN5CCCCC5)nc4)cc3c21 + COC1C(OC(N)=O)C(O)C(Oc2ccc3c(O)c(NC(=O)c4ccc(O)c(CC=C(C)C)c4)c(=O)oc3c2C)OC1(C)C"
reported = "41.7%"

[[record]]
compound = "CNCc1ccc(-c2[nH]c3cc(F)cc4c3c2CCNC4=O)cc1 + COC1C(OC(N)=O)C(O)C(Oc2ccc3c(O)c(NC(=O)c4ccc(O)c(CC=C(C)C)c4)c(=O)oc3c2C)OC1(C)C"
reported = "93.8%"

[[record]]
compound = "Nc1ccn(C2OC(CO)C(O)C2(F)F)c(=O)n1 (stereo unspecified) + Cc1cccc(N(C)C(=O)C2C(O)CCN2c2nc(C)cc(C(F)(F)F)c2C#N)c1"
reported = "57.9%"

[[record]]
compound = "COc1cccc(OCCCN)c1-c1cc(Nc2cnc(C#N)cn2)n[nH]1 + COC1C(OC(N)=O)C(O)C(Oc2ccc3c(O)c(NC(=O)c4ccc(O)c(CC=C(C)C)c4)c(=O)oc3c2C)OC1(C)C"
reported = "57.5%"

[[record]]
compound = "O=C(c1cc(Cc2n[nH]c(=O)c3ccccc23)ccc1F)N1CCN(C(=O)C2CC2)CC1 + Nc1ccc(C#CCN(C(=O)Cc2ncc(C(F)(F)F)cc2C(F)(F)F)c2ccc(F)cc2)nn1"
reported = "114%"

[[record]]
compound = "CCc1c2c(nc3ccc(O)cc13)-c1cc3c(c(=O)n1C2)COC(=O)[C@]3(O)CC + Cc1cccc(N(C)C(=O)C2C(O)CCN2c2nc(C)cc(C(F)(F)F)c2C#N)c1"
reported = "29.7%"


Go through the items and report each one's viability, T/C.
1. COc1cc2cc(C(=O)CCC(=O)O)sc2cc1OC + Cc1cccc(N(C)C(=O)C2C(O)CCN2c2nc(C)cc(C(F)(F)F)c2C#N)c1
2. O=C(c1cc(Cc2n[nH]c(=O)c3ccccc23)ccc1F)N1CCN(C(=O)C2CC2)CC1 + COC1C(OC(N)=O)C(O)C(Oc2ccc3c(O)c(NC(=O)c4ccc(O)c(CC=C(C)C)c4)c(=O)oc3c2C)OC1(C)C
3. CC1COCCN1c1cc(C2(O)CC3CCC(C2)O3)c2cnn(-c3ccn[nH]3)c2n1 (stereo unspecified) + Cc1cccc(N(C)C(=O)C2C(O)CCN2c2nc(C)cc(C(F)(F)F)c2C#N)c1

1. 104%
2. 41.3%
3. 62.3%

====

Test system: 699152-130-R-J1-PDC complex spheroid viability
EXPERIMENT: Anticancer human tumor 699152-130-R-J1-PDC cell line growth inhibition [POLQ];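 also: spheroids exposed to agents for 7 days before viability reading; percent of DMSO vehicle control viability so 100% = vehicle and 0% = no viable signal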
EXPERIMENTAL_CONDITIONS: second compound 1 µM; first compound 0.00316 µM; hits give low values
OBSERVED_PROPERTY: viability, T/C

Below are worked cases with known answers.
[[record]]
compound = "CC[C@@]1(O)C(=O)OCc2c1cc1n(c2=O)Cc2cc3c(CN(C)C)c(O)ccc3nc2-1 + COC1C(OC(N)=O)C(O)C(Oc2ccc3c(O)c(NC(=O)c4ccc(O)c(CC=C(C)C)c4)c(=O)oc3c2C)OC1(C)C"
measured_target = "699152-130-R-J1-PDC complex spheroid viability"
observed_property = "viability, T/C"
reported = "99%"

[[record]]
compound = "CCc1c2c(nc3ccc(O)cc13)-c1cc3c(c(=O)n1C2)COC(=O)[C@]3(O)CC + Cc1cccc(N(C)C(=O)C2C(O)CCN2c2nc(C)cc(C(F)(F)F)c2C#N)c1"
measured_target = "699152-130-R-J1-PDC complex spheroid viability"
observed_property = "viability, T/C"
reported = "77.9%"

[[record]]
compound = "COc1cccc(OCCCN)c1-c1cc(Nc2cnc(C#N)cn2)n[nH]1 + Cc1cccc(N(C)C(=O)C2C(O)CCN2c2nc(C)cc(C(F)(F)F)c2C#N)c1"
measured_target = "699152-130-R-J1-PDC complex spheroid viability"
observed_property = "viability, T/C"
reported = "92.8%"

[[record]]
compound = "C=CCn1c(=O)c2cnc(Nc3ccc(N4CCN(C)CC4)cc3)nc2n1-c1cccc(C(C)(C)O)n1 + COC1C(OC(N)=O)C(O)C(Oc2ccc3c(O)c(NC(=O)c4ccc(O)c(CC=C(C)C)c4)c(=O)oc3c2C)OC1(C)C"
measured_target = "699152-130-R-J1-PDC complex spheroid viability"
observed_property = "viability, T/C"
reported = "108%"


# next compound below
What viability, T/C value was documented for this compound, Cn1ncnc1[C@H]1c2n[nH]c(=O)c3cc(F)cc(c23)N[C@@H]1c1ccc(F)cc1 + COC1C(OC(N)=O)C(O)C(Oc2ccc3c(O)c(NC(=O)c4ccc(O)c(CC=C(C)C)c4)c(=O)oc3c2C)OC1(C)C ? 101%
